FYI, the data here is from PubChem BioAssay (NCATS).

# Assayed Target: Nuclear receptor subfamily 1 group I member 2 (Rattus norvegicus) (UniProt Q9R1A7)
# Sequence (Q9R1A7 whole entry, looked up): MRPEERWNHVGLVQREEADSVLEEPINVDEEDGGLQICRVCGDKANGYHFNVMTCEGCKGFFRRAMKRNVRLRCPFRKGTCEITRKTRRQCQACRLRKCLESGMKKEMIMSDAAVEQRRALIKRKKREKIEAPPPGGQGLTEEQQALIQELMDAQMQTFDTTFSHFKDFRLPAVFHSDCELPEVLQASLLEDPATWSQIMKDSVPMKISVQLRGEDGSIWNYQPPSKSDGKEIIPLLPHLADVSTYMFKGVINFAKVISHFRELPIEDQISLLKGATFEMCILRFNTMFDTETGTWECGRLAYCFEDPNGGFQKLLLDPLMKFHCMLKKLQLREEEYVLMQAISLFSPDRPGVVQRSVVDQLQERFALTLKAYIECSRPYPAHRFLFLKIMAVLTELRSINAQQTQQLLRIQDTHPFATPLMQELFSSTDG
# Experiment Notes: qHTS assay for small molecule activators of the rat pregnane X receptor (rPXR) signaling pathway (AID 651751); note: 0% is about no effect
# Reported Conditions: rPXR reporter cells, luciferase (One-Glo), 24 h
Assay Readout: max response (%)
Give bare numbers, in %.

Solved cases (10 shown):
Nc1ccccc1C(=O)O : -1.41
Nc1nc(N)nc(NC2CC2)n1 : 2.97
Oc1ccc(Cl)cc1 : 5.25
NCCc1ccc(O)cc1 : 0.0715
COP(=S)(OC)Oc1cc(Cl)c(Cl)cc1Cl : 1.25
Nc1ccccc1 : -4.01
Nc1ccc([As](=O)(O)O)cc1 : 3.51
CC(C)NC(C)C : 7.26
COP(=S)(OC)SCN1C(=O)c2ccccc2C1=O : -5.41
O=C1c2ccccc2C(=O)c2ccccc21 : 4.64

Now look at this entry.
Reported max response (Nuclear receptor subfamily 1 group I member 2 (Rattus norvegicus) (UniProt Q9R1A7)) for entry `COc1cc(OC)c(OC)cc1C=O` is 5.78

====

# Experiment Notes: Cell Viability - LYMP2-008 (AID 980);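 note: cells exposed to compound for 24 h at 37 °C; % is set by controls: 0 for no effect and ±100 for the full control effect; nearly all actives have a fitted effect of over 60% in size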
# Reported Conditions: LYMP2-008 lymphoblastoid cell viability, qHTS; series mostly up to 92.2 µM
Inconclusive results are not listed. The source made the active and inactive calls. Calls follow the shape of the dose curve; as a rule, active = well fitted cell-killing curve with a large enough effect; inconclusive = small, poorly fitted or top-dose-only effect; inactive = flat fitted curve, though single readings scatter.
Assay Readout: outcome

Solved entries:
NCCc1ccc(O)cc1 : inactive
Nc1ccccc1 : inactive
Nc1ccccc1C(=O)O : inactive
Oc1ccc(Cl)cc1 : inactive
CCCC(C)(COC(N)=O)COC(N)=O : inactive

// each compound listed below needs its outcome
1. CN1C[C@H](C(=O)N[C@]2(C)O[C@@]3(O)[C@@H]4CCCN4C(=O)[C@H](Cc4ccccc4)N3C2=O)C=C2c3cccc4[nH]cc(c34)C[C@H]21
2. CCOC(=O)CC(SP(=S)(OC)OC)C(=O)OCC (configuration not stated)
3. C[C@]1(O)CC[C@H]2[C@@H]3CCC4=CC(=O)CC[C@]4(C)[C@@]3(F)[C@@H](O)C[C@@]21C
4. Clc1ccc(C(c2ccc(Cl)cc2)C(Cl)(Cl)Cl)cc1
5. COc1cc(OC)c(OC)cc1C=O
6. CC(C)NC(C)C
7. C[C@]12CCC(=O)C=C1CC[C@@H]1[C@@H]2CC[C@]2(C)C(=O)CC[C@@H]12

Marked response:
1. inactive
2. inactive
3. inactive
4. inactive
5. inactive
6. inactive
7. inactive

====

# Experiment Notes: Cell Viability - SH-SY5Y (AID 544);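 note: cells exposed to compound for 40 hours; nearly all actives have a fitted effect of over 55% in size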
# Reported Conditions: SH-SY5Y neuroblastoma cell viability; series mostly up to 92.2 µM
# Description: NIH Chemical Genomics Center [NCGC] NIH Molecular Libraries Screening Centers Network [MLSCN] National Institutes of Environmental Health Sciences [NIEHS] National Toxicology Program [NTP] We have developed a 1536-well cell-based assay for quantitative high throughput screening (qHTS) against a number of cell lines to determine in vitro cytotoxicity of small molecules. […] 8. Detection; Luminescence; Viewlux plate reader […]
Inconclusive results are not listed. Calls of active or inactive are those of the source. Calls follow the shape of the dose curve; as a rule, active = well fitted cell-killing curve with a large enough effect; inconclusive = small, poorly fitted or top-dose-only effect; inactive = flat fitted curve, though single readings scatter.
Entry note: the call must match one of yes (1) = active, no (0) = inactive

Clc1ccc(C(c2ccc(Cl)cc2)C(Cl)(Cl)Cl)cc1 : no (0)
Oc1ccc(Cl)cc1 : no (0)
O=P1(N(CCCl)CCCl)NCCCO1 (stereo not drawn) : no (0)
CCOC(=O)CC(SP(=S)(OC)OC)C(=O)OCC (stereo not drawn) : yes (1)
Nc1ccccc1 : no (0)
Nc1ccccc1C(=O)O : no (0)
CCC(C)(C)c1ccc(O)cc1 : no (0)

Kindly consider the entry below.
Exam item: Could you kindly confirm the outcome this assay logged for `C[C@]1(O)CC[C@H]2[C@@H]3CCC4=CC(=O)CC[C@]4(C)[C@@]3(F)[C@@H](O)C[C@@]21C` ?
Marked response: no (0)
